Below is a list of entries, each paired with its recorded Size (nm) D-30 value.
experiment: Stability of mRNA-LNPs according to storage temperature and duration
Type: physicochemical
measurement_setup: fLuc mRNA-LNP stored at 25° C., day 30
API: value field is a number in nm; no unit string.

Look over these answered cases.
>>> reading("CCCCCCCCCCCOC(=O)CCCCCN(CCCCCCCC(=O)OC(CCCCCCCC)CCCCCCCC)CC(O)CCCCNC(=O)c1nccn1C (stereo not drawn) [Compound 36]")
119.2
>>> reading("CCCCCCCCCCCOC(=O)CCCCCN(CCCCCCCC(=O)OC(CCCCCCCC)CCCCCCCC)CC(O)CCCCNC(=O)c1cccn1C (stereo not drawn) [Compound 18]")
127.5
>>> reading("CCCCCCCCCCCOC(=O)CCCCCN(CCCCCCCC(=O)OC(CCCCCCCC)CCCCCCCC)CC(O)CCCCNC(=O)c1ccc[nH]1 (stereo not drawn) [Compound 16]")
145.1
>>> reading("CCCCCCCCCCCOC(=O)CCCCCN(CCCCCCCC(=O)OC(CCCCCCCC)CCCCCCCC)CC(O)CCCCNC(=O)c1c[nH]c(O)n1 (stereo not drawn) [Compound 35]")
123.8
>>> reading("CCCCCCCCCCCOC(=O)CCCCCN(CCCCCCCC(=O)OC(CCCCCCCC)CCCCCCCC)CC(O)CCCCNC(=O)c1cncn1C (stereo not drawn) [Compound 38]")
152.0

Given CCCCCCCCCCCOC(=O)CCCCCN(CCCCCCCC(=O)OC(CCCCCCCC)CCCCCCCC)CC(O)CCCCNC(=O)c1cnc(O)n1C (stereo not drawn) [Compound 40] , state its recorded Size (nm) D-30.
144.8

Given CCCCCCCCCCCOC(=O)CCCCCN(CCCCCCCC(=O)OC(CCCCCCCC)CCCCCCCC)CC(O)CCCCNC(=O)c1cn(C)cn1 (stereo not drawn) [Compound 37] , state its recorded Size (nm) D-30.
135.7

Given CCCCCCCCCCCOC(=O)CCCCCN(CCCCCCCC(=O)OC(CCCCCCCC)CCCCCCCC)CC(O)CCCCNC(=O)c1c[nH]cn1 (stereo not drawn) [Compound 34] , state its recorded Size (nm) D-30.
164.4

Given CCCCCCCCCCCOC(=O)CCCCCN(CCCCCCCC(=O)OC(CCCCCCCC)CCCCCCCC)CC(O)CCCCNC(=O)c1ncc[nH]1 (stereo not drawn) [Compound 33] , state its recorded Size (nm) D-30.
106.4

Given CCCCCCCCCCCOC(=O)CCCCCN(CCCCCCCC(=O)OC(CCCCCCCC)CCCCCCCC)CC(O)CCCCNC(=O)c1ccn(C)c1 (stereo not drawn) [Compound 19] , state its recorded Size (nm) D-30.
171.7

Given CCCCCCCCCCCOC(=O)CCCCCN(CCCCCCCC(=O)OC(CCCCCCCC)CCCCCCCC)CC(O)CCCCNC(=O)c1cc[nH]c1 (stereo not drawn) [Compound 17] , state its recorded Size (nm) D-30.
128.1

Given CCCCC/C=C\C/C=C\CCCCCCCCC(CCCCCCCC/C=C\C/C=C\CCCCC)OC(=O)CCCN(C)C [MC3, DLin-MC3-DMA, reference compound] , state its recorded Size (nm) D-30.
119.3
